- System: apomorphine-induced stereotypy in rats
- assay-notes: Apomorphine-induced stereotypy in rats (APO)
- Type: in vivo
- protocol-conditions: Rattus norvegicus; dose at which 50% of the tested animals show the effect; ≧: active in 30% of the animals at the indicated dose; ≦: active in 60%
measured-metric: log10 of ED50 (log10 of the value in mg/kg)
Please interpret these as log10 of ED50 where ED50 is in mg/kg.

{"columns": ["record-smiles", "log10 of ED50"],
 "data": [
  ["COCCn1cc(-c2c(C)nc3c(-c4ccncc4)cc(Cl)nn23)cn1", 0.70],
  ["COC(C)(C)Cn1cc(-c2c(C3CC3)nc3c(-c4ccncc4)ccnn23)cn1", 0.08],
  ["Cc1nc2c(N3CCOCC3)ccnn2c1-c1ccc(N2CCNCC2)nc1", 0.85],
  ["COCCc1ccc(-c2c(C3CC3)nc3c(N4CCOCC4)ccnn23)cn1", -0.30],
  ["CC(C)(O)Cc1ccc(-c2c(C3CC3)nc3c(N4CCOCC4)ccnn23)cn1", 0.08],
  ["CCc1nc2c(N3CCOCC3)ccnn2c1-c1cnn(CCOC)c1", 0.30]
]}

Exercise: Give its log10 of ED50 value. Item: COCCn1cc(-c2c(C)nc3c(N4CCOCC4)cc(C)nn23)cn1
Key: 0.49

Exercise: Give its log10 of ED50 value. Item: Cc1nc2c(N3CCOCC3)ccnn2c1-c1ccc(C(C)C)nc1
Key: 0.70

Exercise: Give its log10 of ED50 value. Item: COC(C)(C)Cc1ccc(-c2c(C)nc3c(-c4ccncc4)ccnn23)cn1
Key: -0.52

====

- target-desc: PDE4D3 (Homo sapiens)
- Sequence (Q08499 1-673 isoform Q08499-2): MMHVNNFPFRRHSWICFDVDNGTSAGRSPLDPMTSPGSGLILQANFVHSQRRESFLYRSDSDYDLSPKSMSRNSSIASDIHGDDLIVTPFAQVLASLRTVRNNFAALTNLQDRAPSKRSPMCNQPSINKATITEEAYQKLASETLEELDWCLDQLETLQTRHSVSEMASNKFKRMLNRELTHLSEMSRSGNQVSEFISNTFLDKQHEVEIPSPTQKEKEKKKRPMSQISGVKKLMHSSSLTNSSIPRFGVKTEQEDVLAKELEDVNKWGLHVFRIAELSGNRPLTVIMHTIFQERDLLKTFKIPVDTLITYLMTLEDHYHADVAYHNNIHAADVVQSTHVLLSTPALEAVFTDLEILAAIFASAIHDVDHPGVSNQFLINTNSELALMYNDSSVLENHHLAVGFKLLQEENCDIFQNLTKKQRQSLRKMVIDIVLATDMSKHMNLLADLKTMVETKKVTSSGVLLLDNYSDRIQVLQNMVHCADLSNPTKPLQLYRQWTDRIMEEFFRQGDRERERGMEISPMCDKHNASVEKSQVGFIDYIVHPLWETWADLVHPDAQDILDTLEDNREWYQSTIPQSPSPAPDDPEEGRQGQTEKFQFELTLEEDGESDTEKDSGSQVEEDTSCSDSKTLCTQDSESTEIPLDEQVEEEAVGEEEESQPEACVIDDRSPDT
- assay-notes: In vitro PDE selectivity assay (SPA), PDE4D3
- Assay type: biochemical
- protocol-conditions: hPDE4D3; read-out: PDE 4D3 (expressed as pIC50) (converted)
measured-metric: IC50

Recorded IC50, per entry:
{"columns": ["compound", "measured-metric", "value-measured"],
 "data": [
  ["COCCn1cc(-c2c(C)nc3c(N4CCOCC4)ccnn23)cn1", "IC50", "> 10 µM"],
  ["COC(C)(C)Cc1ccc(-c2c(C)nc3c(N4CCOCC4)ccnn23)cn1", "IC50", "> 10 µM"],
  ["COCCOc1ccc(-c2c(C)nc3c(N4CCOCC4)ccnn23)cn1", "IC50", "> 10 µM"],
  ["COCCOc1ccc(-c2c(C)nc3c(-c4ccncc4)ccnn23)cn1", "IC50", "28.2 µM"],
  ["COCCn1cc(-c2c(C)nc3c(N4CCOCC4)cc(C)nn23)cn1", "IC50", "> 10 µM"],
  ["COC(C)(C)Cn1cc(-c2c(C3CC3)nc3c(-c4ccncc4)ccnn23)cn1", "IC50", "5.13 µM"],
  ["Cc1nc2c(N3CCOCC3)ccnn2c1-c1cnn(CC2CC2(F)F)c1 (stereo not drawn)", "IC50", "> 10 µM"],
  ["c1cc(-c2ccnn3c(-c4ccc(N5CCOCC5)nc4)cnc23)ccn1", "IC50", "> 10 µM"]
]}

Could you now look at the following compound, please?
Exercise: Find IC50 (PDE4D3 (Homo sapiens)) for the entry CCc1ccc(-c2c(C)nc3c(N4CCOCC4)ccnn23)cn1
Key: 13.2 µM

====

- target-desc: Rat recombinant PDE10A (rPDE10A2) (Rattus norvegicus)
- Construct: inferred from the Ni metal chelate purification; made in house; host or cells: Sf9 insect cells (baculovirus)
- Sequence (Q9QYJ6 1-794): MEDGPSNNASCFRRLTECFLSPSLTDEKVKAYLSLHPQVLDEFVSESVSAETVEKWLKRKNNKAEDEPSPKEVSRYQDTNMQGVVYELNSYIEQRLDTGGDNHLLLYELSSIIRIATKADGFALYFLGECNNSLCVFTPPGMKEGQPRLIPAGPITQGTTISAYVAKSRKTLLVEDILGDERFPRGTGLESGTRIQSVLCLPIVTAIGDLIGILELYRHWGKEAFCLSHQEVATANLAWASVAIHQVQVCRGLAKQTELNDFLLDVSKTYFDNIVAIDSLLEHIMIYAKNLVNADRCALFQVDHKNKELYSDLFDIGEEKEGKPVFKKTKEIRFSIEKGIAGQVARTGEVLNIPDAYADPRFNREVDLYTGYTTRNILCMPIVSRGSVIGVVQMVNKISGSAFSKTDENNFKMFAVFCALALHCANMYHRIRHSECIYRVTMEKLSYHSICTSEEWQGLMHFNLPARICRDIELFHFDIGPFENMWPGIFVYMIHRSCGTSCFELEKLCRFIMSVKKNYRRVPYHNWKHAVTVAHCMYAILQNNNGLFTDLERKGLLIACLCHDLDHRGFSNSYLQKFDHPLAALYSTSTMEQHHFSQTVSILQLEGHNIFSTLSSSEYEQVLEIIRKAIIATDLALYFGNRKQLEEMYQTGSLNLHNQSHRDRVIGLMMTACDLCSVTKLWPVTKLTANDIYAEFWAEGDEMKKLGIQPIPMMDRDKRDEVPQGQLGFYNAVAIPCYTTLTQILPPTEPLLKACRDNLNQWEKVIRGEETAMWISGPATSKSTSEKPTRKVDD
- assay-notes: In vitro assay PDE10A (SPA, 3H-cAMP)
- Type: biochemical
- protocol-conditions: pIC50 corresponds to the −log IC50 expressed in mol/L; read-out: PDE10A2 pIC50 (converted)
Item-by-item account of log10(IC50)
Please interpret these as log10 of IC50 where IC50 is in µM.

Recorded log10(IC50), per entry:
{"columns": ["record-smiles", "target-desc", "measured-metric", "value-measured"],
 "data": [
  ["CCc1ccc(-c2c(C3CC3)nc3c(N4CCOCC4)cc(C)nn23)cn1", "Rat recombinant PDE10A (rPDE10A2) (Rattus norvegicus)", "log10(IC50)", -0.43],
  ["COCCn1cc(-c2c(C)nc3c(N4CCOCC4)cc(C)nn23)cn1", "Rat recombinant PDE10A (rPDE10A2) (Rattus norvegicus)", "log10(IC50)", -1.02]
]}

Exercise: Give its log10(IC50) value. Item: Cc1nc2c(N3CCOCC3)ccnn2c1-c1ccc(C(C)C)nc1
Key: -1.11

Exercise: Give its log10(IC50) value. Item: Cc1cc(-c2ccncc2)c2nc(C3CC3)c(-c3ccc(N4CCOCC4)nc3)n2n1
Key: -1.08

Exercise: Give its log10(IC50) value. Item: Cc1nc2c(N3CCOCC3)ccnn2c1-c1ccc(OC(C)C)nc1
Key: -0.75

Exercise: Give its log10(IC50) value. Item: COCCOc1ccc(-c2c(C)nc3c(-c4cccnc4)ccnn23)cn1
Key: -0.95

====

Item-by-item account of IC50
- target-desc: other members of the PDE family (Homo sapiens, UniProt Q9HCR9)
- Sequence (Q9HCR9 whole entry): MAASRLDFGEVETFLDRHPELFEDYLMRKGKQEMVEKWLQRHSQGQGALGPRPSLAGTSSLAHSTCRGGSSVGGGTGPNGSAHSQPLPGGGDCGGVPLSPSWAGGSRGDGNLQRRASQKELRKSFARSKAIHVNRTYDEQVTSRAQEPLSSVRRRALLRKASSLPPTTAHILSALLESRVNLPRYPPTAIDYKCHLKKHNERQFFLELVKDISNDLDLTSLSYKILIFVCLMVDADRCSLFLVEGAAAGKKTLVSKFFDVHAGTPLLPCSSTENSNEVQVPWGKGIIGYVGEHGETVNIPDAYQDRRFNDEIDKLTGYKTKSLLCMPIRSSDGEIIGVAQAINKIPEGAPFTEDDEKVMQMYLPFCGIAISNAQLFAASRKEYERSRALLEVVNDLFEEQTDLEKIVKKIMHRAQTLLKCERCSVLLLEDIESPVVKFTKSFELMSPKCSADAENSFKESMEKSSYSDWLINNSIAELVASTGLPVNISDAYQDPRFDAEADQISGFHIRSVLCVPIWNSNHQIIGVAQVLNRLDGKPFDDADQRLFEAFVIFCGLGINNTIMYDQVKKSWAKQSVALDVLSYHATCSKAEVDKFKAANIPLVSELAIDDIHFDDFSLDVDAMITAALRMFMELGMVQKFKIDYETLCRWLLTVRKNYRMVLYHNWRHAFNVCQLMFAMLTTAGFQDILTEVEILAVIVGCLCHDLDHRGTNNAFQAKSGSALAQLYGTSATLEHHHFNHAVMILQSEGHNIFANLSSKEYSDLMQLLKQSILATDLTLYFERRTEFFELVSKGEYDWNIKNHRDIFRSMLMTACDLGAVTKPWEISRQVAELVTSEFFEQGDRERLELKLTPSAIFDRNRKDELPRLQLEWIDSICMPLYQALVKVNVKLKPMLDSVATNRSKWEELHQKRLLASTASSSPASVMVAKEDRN
- assay-notes: In vitro PDE selectivity assay (SPA), other members of the PDE family (protocols in Table A)
- Type: biochemical
- protocol-conditions: hPDE11A4; read-out: PDE 11A4 (expressed as pIC50) (converted)

Recorded IC50, per entry:
{"columns": ["compound", "target-desc", "value-measured"],
 "data": [
  ["CCc1ccc(-c2c(C)nc3c(N4CCOCC4)ccnn23)cn1", "other members of the PDE family (Homo sapiens, UniProt Q9HCR9)", "30.2 µM"],
  ["COCCn1cc(-c2c(C)nc3c(-c4ccncc4)cc(C)nn23)cn1", "other members of the PDE family (Homo sapiens, UniProt Q9HCR9)", "5.37 µM"]
]}

Exercise: Give its IC50 value. Item: Cc1nc2c(N3CCOCC3)ccnn2c1-c1ccc(N2CCOCC2)nc1
Key: > 10 µM

Exercise: Give its IC50 value. Item: Cc1nc2c(N3CCOCC3)ccnn2c1-c1ccc(C(C)C)nc1
Key: > 10 µM

Exercise: Give its IC50 value. Item: COCCc1ccc(-c2c(C3CC3)nc3c(-c4ccncc4)ccnn23)cn1
Key: 1.41 µM

====

Item-by-item account of log10(IC50)
- target-desc: Rat recombinant PDE10A (rPDE10A2) (Rattus norvegicus)
- Construct: inferred from the Ni metal chelate purification; made in house; host or cells: Sf9 insect cells (baculovirus)
- assay-notes: In vitro assay PDE10A (SPA, 3H-cAMP)
- Assay type: biochemical
- protocol-conditions: Table 4 in vitro selectivity; read-out: PDE 10A2 (expressed as pIC50) (converted)
- Experimental: Rat recombinant PDE10A (rPDE10A2) was expressed in Sf9 cells using a recombinant rPDE10A baculovirus construct. Cells were harvested after 48 h of infection and the rPDE10A protein was purified by metal chelate chromatography on Ni-sepharose 6FF. […] After sedimentation of the beads during 30 minutes the radioactivity was measured in a Perkin Elmer Topcount scintillation counter and results were expressed as cpm. […]
Please interpret these as log10 of IC50 where IC50 is in µM.

{"columns": ["compound", "measured-metric", "value-measured"],
 "data": [
  ["COC(C)(C)Cn1cc(-c2c(C)nc3c(N4CCOCC4)ccnn23)cn1 [compound 37]", "log10(IC50)", -1.30],
  ["COCCc1ccc(-c2c(C3CC3)nc3c(N4CCOCC4)cc(C(F)(F)F)nn23)cn1 [compound 85]", "log10(IC50)", -0.18],
  ["COCCn1cc(-c2c(C)nc3c(N4CCOCC4)ccnn23)cn1 [compound 36]", "log10(IC50)", -1.25],
  ["Cc1nc2c(N3CCOCC3)ccnn2c1-c1cnn(CC(C)C)c1 [compound 35]", "log10(IC50)", -1.42],
  ["COCCOc1ccc(-c2c(C)nc3c(-c4ccncc4)ccnn23)cn1 [compound 21]", "log10(IC50)", -0.99],
  ["COCCn1cc(-c2c(C3CC3)nc3c(-c4ccncc4)ccnn23)cn1 [compound 142]", "log10(IC50)", -1.84],
  ["COCCc1ccc(-c2c(C3CC3)nc3c(N4CCOCC4)ccnn23)cn1 [compound 22]", "log10(IC50)", -1.25],
  ["CCc1ccc(-c2c(C3CC3)nc3c(N4CCOCC4)cc(C)nn23)cn1 [compound 84]", "log10(IC50)", -0.43]
]}

Could you now look at the following compound, please?
Exercise: Give its log10(IC50) value. Item: c1cc(N2CCOCC2)c2ncc(-c3ccc(C4CC4)nc3)n2n1 [compound 112]
Key: -0.37
